Catalogue of molecules with associated TGI
tested on: NCI-H522 lung; test: NCI tumour cell line growth inhibition, 48 h
assay-metric: TGI (µM)

> print(dat)
                                    molecule  assay.metric  reading.qualifier  endpoint.value
 1  CN1CCc2ccccc2C(C(=O)c2ccc3c(c2)OCO3)C1=O (stereo not given)           TGI                  >             100
 2  COc1cccc(/C=N\NC(=O)C(C)SC(C)C(=O)N/N=C/c2cccc(OC)c2)c1 (stereo not given)           TGI                  =            59.1
 3  COc1ccc2c(c1)C(=O)c1c-2c(OCCN(C)C)nc2cc(OC)c(OC)cc12           TGI                  >             100
 4  CN1CCC(C(O)(c2ccccc2)c2ccc(Br)cc2)CC1 (stereo not given)           TGI                  =            30.4
 5  CCOC(=O)CCC(NC(=O)c1ccc(NC(OC)c2nc3cc(C(F)(F)F)ccc3nc2-c2ccccc2)cc1)C(=O)OCC (stereo not given)           TGI                  =            25.6
 6      CCOc1ccc(NC(=O)C(=O)Nn2c(N)nnc2N)cc1           TGI                  >             100
 7  CC1(C)OC[C@@H]([C@@]2(COC(c3ccccc3)(c3ccccc3)c3ccccc3)CC=CC(=O)O2)O1           TGI                  =            40.9
 8  O=[N+]([O-])c1ccc(-c2nn3c(C45CC6CC(CC(C6)C4)C5)nnc3s2)c(Cl)c1           TGI                  >             100
 9               CCCCCCCCCCCCCCCC[n+]1ccccc1           TGI                  =           0.947
10   CC(C)(C)O/N=C/c1cc(NC(=S)c2ccsc2)ccc1Cl           TGI                  =            33.6

###

Catalogue of molecules with associated TGI
test system: KM12 colon; assay: NCI tumour cell line growth inhibition, 48 h
assay-metric: TGI

> print(dat)
                                    molecule  target.desc  endpoint.value
 1  CN1CC[C@H](c2c(O)cc(O)c3c(=O)cc(-c4ccccc4Cl)oc23)[C@H](O)C1   KM12 colon         > 10 µM
 2  CC1(C)C2CCC13C(=O)C1OC3(C2)C2C(=O)c3c(ccc4c3ccc3ccccc34)C(=O)C12 (stereo not given)   KM12 colon        > 100 µM
 3  COc1ccc(/C=C/C(=O)c2cc3c(N)c(C(=O)Nc4ccc(OC)cc4)sc3nc2C)cc1   KM12 colon         20.5 µM
 4  CC1(C)N=C(N)N=C(N)N1c1cccc(CCc2ccccc2)c1   KM12 colon         14.6 µM
 5  COC(=O)C(=O)Nc1cc2c3c(c1)Oc1cccc4c1C3(C)c1c(cccc1O2)O4   KM12 colon        > 100 µM
 6  CCCCCCCCCCCCCCCCNC(=O)/C(=C\c1ccc(Cl)c(Cl)c1)NC(=O)c1ccccc1   KM12 colon        > 100 µM
 7  CC1=CCC(C(C)(C)NC(=O)c2ccccc2)C/C1=N/O (stereo not given)   KM12 colon        > 100 µM
 8     COc1ccc(/C=C\c2cc(OC)c(OC)c(OC)c2)cc1   KM12 colon        > 100 µM
 9  CCOC(=O)C1=C(OC(OCC)C(CC)[Se]c2ccccc2)CCC1 (stereo not given)   KM12 colon        > 100 µM
10             N#C/C(=C(/O)CCl)c1nc2ccccc2o1   KM12 colon         53.3 µM

###

Catalogue of compounds with associated TGI
system: OVCAR-8 ovarian; assay: NCI tumour cell line growth inhibition, 48 h

compound	target-desc	TGI
CCOc1ccc(NC(=O)C(=O)Nn2c(N)nnc2N)cc1	OVCAR-8 ovarian	> 100 µM
COc1ccc(-c2cc(/C=C/C(=O)c3ccc(N)cc3)[nH]n2)cc1	OVCAR-8 ovarian	15.4 µM
O=C1CCC(=O)N1Sc1ccccc1	OVCAR-8 ovarian	> 100 µM
CC(C)CC(N)C(=O)NC(C(=O)NC(CCCNC(=N)N)C(=O)NC(CS)C(=O)NC1CSCC(C(=O)NC(Cc2ccccc2)C(=O)NC(C(=O)NC(CCCNC(=N)N)C(=O)O)C(C)C)NC(=O)C2CCCN2C(=O)C(CCCCN)NC(=O)C2CCCN2C(=O)C2CCCN2C(=O)C(Cc2ccc(O)cc2)NC(=O)C(CO)NC(=O)C(CCCCN)NC(=O)C(C(C)O)NC(=O)C(Cc2c[nH]c3ccccc23)NC1=O)C(C)C (stereo not drawn)	OVCAR-8 ovarian	> 25 µM
O=C(NCCNCCNC(=O)c1cc(-c2ccccc2)nc2ccccc12)c1cc(-c2ccccc2)nc2ccccc12	OVCAR-8 ovarian	4.54 µM
Cc1cn(C2CC(N=[N+]=[N-])C(COP(=O)(O)OCC3OC(n4cc(F)c(=O)[nH]c4=O)CC3O)O2)c(=O)[nH]c1=O (stereo not drawn)	OVCAR-8 ovarian	> 100 µM
CCc1n[nH]c(=O)n1/N=C(\C)c1ccccc1	OVCAR-8 ovarian	> 100 µM
CN(N=O)c1nc2c(C(N)=O)ncn2s1	OVCAR-8 ovarian	> 100 µM
COc1cc([C@@H]2c3cc4c(cc3[C@@H](Nc3ccc(Cl)cc3C(=O)c3ccccc3)[C@H]3COC(=O)[C@H]23)OCO4)cc(OC)c1OC	OVCAR-8 ovarian	> 100 µM
Cc1sc2nc3n(c(=O)c2c1C)N=CN(c1ccc(Cl)cc1)C3	OVCAR-8 ovarian	> 100 µM
O=CN1N=C(c2cccc(Nc3ccnc4cc(Cl)ccc34)c2)CC1c1ccc(Cl)cc1 (stereo not drawn)	OVCAR-8 ovarian	> 100 µM
O=c1c(Sc2c(SCSc3cnc4ccccc4c3Sc3c[nH]c4ccccc4c3=O)cnc3ccccc23)c[nH]c2ccccc12	OVCAR-8 ovarian	> 100 µM
CC(C)OP(=O)(OC(C)C)C(C)(C)O	OVCAR-8 ovarian	> 100 µM
COc1ccc(C)cc1NC(=S)C#N	OVCAR-8 ovarian	> 100 µM
COc1cc(-c2nn(-c3cccc(NC(=O)CCN4CCN(c5ccccc5)CC4)c3)cc2-c2ccncc2)ccc1Cl	OVCAR-8 ovarian	> 100 µM
COc1cc([C@@H]2c3cc4c(cc3[C@@H](NCc3cccc(C#N)c3)C3COC(=O)[C@@H]32)OCO4)cc(OC)c1O (stereo partly drawn)	OVCAR-8 ovarian	4.56 µM
O=c1[nH]cnc2n[nH]nc12	OVCAR-8 ovarian	> 100 µM
CCOP(=O)(O)C(Nc1ccc(N=Nc2ccccc2)cc1)c1cccc(C(Nc2ccc(N=Nc3ccccc3)cc2)P(=O)(O)OCC)c1 (stereo not drawn)	OVCAR-8 ovarian	> 100 µM

###

tested on: OVCAR-4 ovarian; test: NCI tumour cell line growth inhibition, 48 h

compound	TGI
O=C(O)CSc1n[nH]c(-c2ccco2)n1	> 100 µM
CC1(C)C2CCC13C(=O)C1OC3(C2)C2C(=O)c3c(ccc4c3ccc3ccccc34)C(=O)C12 (stereo not given)	> 100 µM
CSC1=Nc2c(c(C)c(-c3ccccc3)n2COC(CO)CO)C2=NC(=O)CC(C)N12 (stereo not given)	> 100 µM
COCC(C(=O)OC1C/C=C/C=C/C(=O)OC(C(C)C(O)C(C)CCC(OC(=O)C(C)N(C)C)C(C)C(OC(C)=O)C(C)/C=C/N(C)C=O)C/C=C/C(OC)CC(C)C/C=C(\C)C(OC)CCC(C)C(O)C1C)N(C)C (stereo not given)	> 0.281 µM
Cc1ccc(S(=O)(=O)N/N=C2/CCC3(O)CC2(C)CCC2[C@H]3CC2(C)C)cc1 (stereo not given in full)	> 100 µM

###

Catalogue of molecules with associated TGI
tested on: OVCAR-3 ovarian; experiment: NCI tumour cell line growth inhibition, 48 h
assay-metric: TGI

> print(dat)
                                    molecule  endpoint.value
 1  Cc1ccc2nc(NS(=O)(=O)c3cc(C)c(Cl)cc3S)[nH]c2c1        > 100 µM
 2  COC(=O)[C@@](NC(=O)OCc1ccccc1)([C@H](C)O)C(F)(F)F        > 100 µM
 3  COc1cc(-c2nn(-c3cccc(NC(=O)CCNc4ccc(N5CCOCC5)cc4)c3)cc2-c2ccncc2)ccc1Cl         8.55 µM
 4  NC1=NCN(C2OC(CO)C(O)C2O)C(=O)N1 (stereo unspecified)          361 µM
 5  O=C(NCCNCCNC(=O)c1cc(-c2ccccc2)nc2ccccc12)c1cc(-c2ccccc2)nc2ccccc12         5.73 µM
 6                           CSc1nc(=O)cnn1C        > 100 µM
 7  Cc1ccc(S(=O)(=O)N2CCSCCSCCSCCN(S(=O)(=O)c3ccc(C)cc3)CC2)cc1        > 100 µM
 8        CCOC(=O)[C@@H]1CSC(CC)=C(C(=O)O)N1        > 100 µM
 9   O=[N+]([O-])c1cccc(Nc2nc(Cl)nc(Cl)n2)c1        > 100 µM
10  CN(C)CCN1CCc2c([nH]c3ccccc23)C1c1cccnc1 (stereo unspecified)        > 100 µM
11  COc1ccc(/C=C/C(=O)c2cc3c(N)c(C(=O)Nc4ccc(OC)cc4)sc3nc2C)cc1         1.96 µM
